Origin of the recorded values: PubChem BioAssay (Tox21)

Test: p53 small molecule agonists, cell-based qHTS assay with human liver microsomes: qHTS cell viability counter screen (AID 1963579); also: % is scaled to controls: 0 for no effect and ±100 for the full control effect; nearly all actives have a fitted effect of over 45% in size
Details: p53RE-bla HCT-116 viability, ATP luminescence, 16 h, HLM; series mostly up to 66 µM
From the text: National Center for Advancing Translational Sciences [NCATS] Division of Preclinical Innovation [DPI] U.S. Environmental Protection Agency [EPA] National Institutes of Environmental Health Sciences [NIEHS] National Toxicology Program [NTP] U.S. Food and Drug Administration [FDA] p53, a tumor suppressor protein, is activated following cellular insult, including DNA damage and other cellular stresses. […] The activation of the reporter gene under culture conditions can be detected by fluorescence intensity. […]
Records with an inconclusive call do not appear. Active and inactive are the calls of the source. Calls follow the shape of the full dose curve.
measure.name: activity change, negative = cytotoxicity

Check out these entries, answers already filled in.
compound	activity change, negative = cytotoxicity
OC1CCCc2ccccc21 (stereo not given)	inactive
O=C(CCOCCOCCOCCOCCC(=O)Nc1c(I)cc(I)c(C(=O)O)c1I)Nc1c(I)cc(I)c(C(=O)O)c1I	inactive
c1ccc(-c2nn[nH]n2)cc1	inactive
O=NN(CCCl)C(=O)NCCCl	inactive

Tell me activity change, negative = cytotoxicity reported for COC(=O)C1CC(=O)C(C(=O)OC)CC1=O (stereo not given)
-6.82% [at 5.99 µM] (inactive)

Give the value of activity change, negative = cytotoxicity reported for the following: CCN(CC)CCNC(=O)COc1ccc(Cl)cc1
inactive

Tell me activity change, negative = cytotoxicity reported for O=C1CCCN1CCO
inactive

Return activity change, negative = cytotoxicity (reported value) for this compound: N[C@@H](CSCCCO)C(=O)O
-3.2% [at 13.5 µM] (inactive)

Answer with the recorded activity change, negative = cytotoxicity for the compound listed here: CC(C)(O)c1ccc(CNC(=O)c2cccnc2Oc2ccc3nonc3c2)cc1
inactive

Please give measured activity change, negative = cytotoxicity of the following entry: C=Cc1ccccc1C=C
inactive

Let me know recorded activity change, negative = cytotoxicity for CC(C)(Oc1ccc(Cl)cc1)C(=O)OCCCOC(=O)C(C)(C)Oc1ccc(Cl)cc1 , thanks.
inactive

Give the reported value of activity change, negative = cytotoxicity for this record: O=C(O)c1ccccc1NCCc1ccccc1
inactive

Look up and state reported activity change, negative = cytotoxicity for CC(C)CCCCCCOC(=O)CCCCC(=O)OCCCCCCC(C)C
inactive

Complete the entry with activity change, negative = cytotoxicity for CCCCCCCCSCc1cc(C)c(O)c(CSCCCCCCCC)c1
inactive

* * *

biological target: 5-hydroxytryptamine receptor 2A (Homo sapiens); assay: 5-hydroxytryptamine receptor 2A (HTR2A) small molecule agonists, cell-based qHTS assay (AID 1963587); conditions: HTR2A-CHO cells, calcium flux fluorescence, agonist mode; series mostly up to 76.8 µM; also: % is scaled to controls: 0 for no effect and ±100 for the full control effect; nearly all actives have a fitted effect of over 30% in size
Results filed as inconclusive are left out. The source made the active and inactive calls. The call rests on the fitted dose curve.
measure.name: activation

Example results:
molecule	target	measured.value
CCCCCCCCCCCCCCCCCCN(C)C	5-hydroxytryptamine receptor 2A (Homo sapiens)	inactive
COc1c(Br)cc(Br)c(C)c1Br	5-hydroxytryptamine receptor 2A (Homo sapiens)	inactive
O=C(/C=C/c1ccccc1)OCCCc1ccccc1	5-hydroxytryptamine receptor 2A (Homo sapiens)	inactive
CCCC1CCCC(=O)O1 (configuration not stated)	5-hydroxytryptamine receptor 2A (Homo sapiens)	inactive
CC(C)(C)OC(=O)c1ccccc1C(=O)O	5-hydroxytryptamine receptor 2A (Homo sapiens)	inactive
CCCCCCCC[Si](OCC)(OCC)OCC	5-hydroxytryptamine receptor 2A (Homo sapiens)	inactive

Turning to the following molecule.
Give activation for this entry on 5-hydroxytryptamine receptor 2A (Homo sapiens): N#C[C@@H]1CC(F)(F)CN1C(=O)CNC1CC2CCC(C1)N2c1ncccn1 (some centres not stated)
inactive
